Value source: patent USRE42890E1

# System: adherent cells or suspension cells
# measurementNotes: Hoechst 33342 nuclear staining (fraction of apoptotic nuclei)
# Assay type: cell-based
# Parameters: key: 0 relating to no activity; 1 relating to weak activity comprising less than 70% of the cells; score 2 relating to strong activity comprising more than 70% of the cells
# conditionDescription: MRC5, conc 1 μm
measureName: Hoechst 33342 nuclear staining score

- Nc1nonc1-c1nc2ccccc2n1CC(=NO)c1ccc(Cl)cc1 (mixture of isomers) [Example 21]: 0

---

# System: MRC5
# measurementNotes: MTS proliferation assay, MRC5
# Format: cell-based
# conditionDescription: Homo sapiens; MRC5, 72 h incubation; read-out: MTS proliferation assay IC 50 MRC5
measureName: IC50

• COCOc1ccc(C(=O)Cn2c(-c3nonc3N)nc3ccccc32)cc1OC = < 10 nM
• Nc1nonc1-c1nc2ccccc2n1COc1ccc(F)cc1 = 100 to 1000 nM
• Nc1nonc1-c1nc2ccccc2n1CC(=O)c1ccc(Cl)c([N+](=O)[O-])c1 = 100 to 1000 nM
• COC(=O)CCNc1nonc1-c1nc2ccccc2n1CC(=O)c1ccc(Cl)cc1 = 100 to 1000 nM
• CN(C)c1nonc1-c1nc2ccccc2n1CC(=O)c1ccc(Cl)cc1 = 100 to 1000 nM
• Nc1cc(C(=O)Cn2c(-c3nonc3N)nc3ccccc32)ccc1Cl = 10 to 100 nM

---

# System: HeLa
# measurementNotes: MTS proliferation assay, HeLa
# Format: cell-based, human
# conditionDescription: 72 h incubation, read-out: MTS proliferation assay IC 50 HeLa
pIC50: −log10 of the molar value.
measureName: pIC50

- Nc1nonc1-c1nc2ccccc2n1COc1ccc(CO)cc1: 6.00 to 7.00
- Nc1nonc1-c1nc2ccccc2n1CC(=O)c1ccc(-c2ccccc2)cc1: < 6.00
- Nc1nonc1-c1nc2ccccc2n1CC(=O)c1ccccn1: 6.00 to 7.00
- CC(=O)Nc1nonc1-c1nc2ccccc2n1CC(=O)c1ccccc1: 6.00 to 7.00
- N#CCCNc1nonc1-c1nc2ccccc2n1CC(=O)c1ccc(N)nc1: > 8.00
- CON=C(Cn1c(-c2nonc2N)nc2ccccc21)c1ccccc1 (mixture of isomers): < 6.00
- Nc1nonc1-c1nc2ccccc2n1CC(=O)c1ccc([N+](=O)[O-])cc1: < 6.00
- COc1ccc(C(=O)Cn2c(-c3nonc3NCCC#N)nc3ccccc32)cc1N: 6.00 to 7.00
- Cc1cc2nc(-c3nonc3N)n(CC(=O)c3ccc(Cl)cc3)c2cc1C: < 6.00
- CON=C(Cn1c(-c2nonc2N)nc2ccccc21)c1ccc(Cl)cc1 (mixture of isomers): 6.00 to 7.00
- COc1cccc(C(=O)Cn2c(-c3nonc3N)nc3ccccc32)c1: 6.00 to 7.00
- Nc1nonc1-c1nc2ccccc2n1CC(=O)c1ccc(Cl)nc1: > 8.00
- Nc1nonc1-c1nc2ccccc2n1COc1cc(C(F)(F)F)cc(C(F)(F)F)c1: < 6.00
- Nc1nonc1-c1nc2ccccc2n1CC(=NO)c1ccccc1Cl (mixture of isomers): < 6.00
- COc1ccc(OCn2c(-c3nonc3N)nc3ccccc32)cc1: 6.00 to 7.00
- CON=C(Cn1c(-c2nonc2N)nc2ccccc21)c1ccc(Br)cc1 (mixture of isomers): 6.00 to 7.00
- COc1cccc(/C=C/C(=O)Cn2c(-c3nonc3N)nc3ccccc32)c1: < 6.00
- Nc1nonc1-c1nc2ccccc2n1CC(=O)c1ccccc1Cl: 6.00 to 7.00
- Cc1ccc(/C=C/C(=O)Cn2c(-c3nonc3N)nc3ccccc32)cc1: < 6.00
- Nc1nonc1-c1nc2ccccc2n1COc1ccc([N+](=O)[O-])cc1: < 6.00
- CON=C(Cn1c(-c2nonc2N)nc2ccccc21)c1ccccc1Cl (mixture of isomers): < 6.00
- Nc1nonc1-c1nc2ccccc2n1CC1CC1 [B, reference compound]: < 6.00
- Cc1ccc(C(=O)Cn2c(-c3nonc3N)nc3ccccc32)cc1: 7.00 to 8.00
- Cl.Nc1ccc(OCn2c(-c3nonc3N)nc3ccccc32)cc1: < 6.00
- Nc1nonc1-c1nc2ccccc2n1COc1ccc(Cl)cc1: 6.00 to 7.00
- COc1cc(C(=O)Cn2c(-c3nonc3N)nc3ccccc32)ccc1OC(C)=O: 6.00 to 7.00
- Cc1cc2nc(-c3nonc3N)n(CC(=O)c3ccccc3)c2cc1C: 6.00 to 7.00
- Nc1nonc1-c1nc2ccccc2n1COc1ccc(C(F)(F)F)cc1: 6.00 to 7.00
- Nc1nonc1-c1nc2ccccc2n1COc1ccc(Cl)c(Cl)c1: 7.00 to 8.00
- Nc1ccc(C(=O)Cn2c(-c3nonc3N)nc3ccccc32)cc1[N+](=O)[O-]: 7.00 to 8.00
- COc1cc(C(=O)Cn2c(-c3nonc3N)nc3ccccc32)ccc1OCc1ccccc1: 6.00 to 7.00
- CON=C(Cn1c(-c2nonc2N)nc2ccccc21)c1ccc(OC)cc1 (mixture of isomers): 6.00 to 7.00
- CC(=O)Nc1ccc(C(=O)Cn2c(-c3nonc3N)nc3ccccc32)cc1[N+](=O)[O-]: 7.00 to 8.00
- CON=C(Cn1c(-c2nonc2N)nc2ccccc21)c1cccc(Cl)c1 (mixture of isomers): 6.00 to 7.00
- COc1cc2nc(-c3nonc3N)n(CC(=O)c3ccc(Cl)cc3)c2cc1OC: < 6.00
